meta.source: patent US6107316A

Assay: cytotoxicity towards HFF host cells (Cell Titer 96)
Details: human, % Inhibition of host cell growth (values in parenthesis), 5.0 μg/ml, 72 hours
MEASUREMENT_LABEL: inhibition at 72 h (%)
Answers are plain numbers, in %.

CCC(C)(NC(=O)c1cc(Cl)cc(Cl)c1)C(=O)CCl (stereo not drawn): 39.6
O=C1C(O)=C([C@H]2CC[C@H](c3ccc(Cl)cc3)CC2)C(=O)c2ccccc21 [Atovaquone, reference compound]: 28.1

For this compound ( CCC(C)(NC(=O)c1cc(Cl)c(N)c(Cl)c1)C(=O)CCl (stereo not drawn) ), measured inhibition at 72 h is 47.6

---

System: Tetrahymena pyriformis
Assay: in vitro growth inhibitory activity against the ciliate Tetrahymena pyriformis
Format: cell-based, Tetrahymena pyriformis (ATCC strain 30005)
Settings: 24 hours, 25° C., read-out: EC50 Tetrahymena pyriformis
Exercise: for every item that follows, state its recorded EC50.

CCC(C)(NC(=O)c1cc(Cl)cc(C=NOC)c1)C(=O)CCl (stereo not shown): < 0.01 µg/mL
CCCN(CCC)c1c([N+](=O)[O-])cc(C(F)(F)F)cc1[N+](=O)[O-]: > 6 µg/mL
CCC(C)(NC(=O)c1cncc(Br)c1)C(=O)CCl (stereo not shown): < 0.01 µg/mL

Now, please, on to the next compound.
The value of EC50 measured for the compound CCC(C)(NC(=O)c1cc(C)cc(Br)c1)C(=O)CCl (stereo not shown) turned out to be < 0.01 µg/mL

---

Provide the recorded inhibition at 72 h for the entries that follow.
Experiment: cytotoxicity towards HFF host cells (Cell Titer 96)
Conditions: human, % Inhibition of host cell growth (values in parenthesis), 0.5 μg/ml, 72 hours
Give bare numbers, in %.

Worked set:
CCC(C)(NC(=O)c1cc(F)cc(F)c1)C(=O)CCl (stereo not shown) [Compound 12]: 0
O=C1C(O)=C([C@H]2CC[C@H](c3ccc(Cl)cc3)CC2)C(=O)c2ccccc21 [Atovaquone, reference compound]: 1.4
CCC(C)(NC(=O)c1cc(Cl)c(F)c(Cl)c1)C(=O)CCl (stereo not shown) [Compound 9]: 0

Let us move to another entry and its inhibition at 72 h.
Given item CCC(C)(NC(=O)c1cc(Br)c(N)c(Br)c1)C(=O)CCl (stereo not shown) [Compound 14] , the value recorded as its inhibition at 72 h is 0

---

Assay: cytotoxicity towards L929 host cells (Cell Titer 96)
Conditions: mouse, % Inhibition of host cell growth (values in parenthesis), L929, 5.0 μg/ml, 24 hours
MEASUREMENT_LABEL: inhibition at 24 h
Write down the value, and be sure its unit follows.

// solved cases for inhibition at 24 h follow
CCC(C)(NC(=O)c1cc(Cl)c(N)c(Cl)c1)C(=O)CCl (stereo not drawn): 19.7%
CCC(C)(NC(=O)c1cc(Cl)c(F)c(Cl)c1)C(=O)CCl (stereo not drawn): 20.2%

# next compound below
Record O=C1C(O)=C([C@H]2CC[C@H](c3ccc(Cl)cc3)CC2)C(=O)c2ccccc21 [Atovaquone, reference compound] . Reported inhibition at 24 h: 20%
